Reference for the values: paper PMC8709388

// values below are IC50; system is mouse GOAT (Mus musculus, UniProt P0C7A3)
Sequence (P0C7A3 whole entry): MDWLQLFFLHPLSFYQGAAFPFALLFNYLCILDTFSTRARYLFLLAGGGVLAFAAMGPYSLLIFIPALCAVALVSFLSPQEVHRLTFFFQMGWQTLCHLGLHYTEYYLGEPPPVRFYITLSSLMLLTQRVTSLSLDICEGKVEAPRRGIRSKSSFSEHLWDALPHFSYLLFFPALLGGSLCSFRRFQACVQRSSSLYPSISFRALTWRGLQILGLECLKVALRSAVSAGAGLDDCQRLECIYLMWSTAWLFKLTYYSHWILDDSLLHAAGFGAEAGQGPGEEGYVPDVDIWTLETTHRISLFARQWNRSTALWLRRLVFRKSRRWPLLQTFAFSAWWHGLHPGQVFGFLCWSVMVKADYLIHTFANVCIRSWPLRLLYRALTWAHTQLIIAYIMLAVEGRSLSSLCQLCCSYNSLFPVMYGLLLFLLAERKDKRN
Where a SMILES comes first, the peptide text is derived from it. [ ]: non-standard residue; d: D form. The star is where a group is joined. Tle = CC(C)(C)[C@H](N)C(=O)O; Octanoyl = CCCCCCCC(=O)*; Dap = NC[C@H](N)C(=O)O; Sar = CNCC(=O)O
Number only, in µM; omit the unit.

These recorded examples may help you get a feel for the data.
COMPOUND | RESULT_UNIT | IC50
CCCCOCC(=O)N1CCC(CCc2c(C)nc3nonc3c2N)CC1 | µM | 0.063
Cc1nc(Cl)nc(N)c1CCC1CCN(C(=O)[C@H](C)NC(=O)c2ccnn2C)CC1 | µM | 0.088
CCCCCCCC(=O)NC[C@H](NC(=O)[C@@H](NC(=O)CNC)C(C)(C)C)C(=O)N[C@@H](Cc1ccccc1)C(N)=O [compound 8] (H-[Sar][Tle][Dap](Octanoyl)F-NH2) | µM | 0.014
Cc1nc2nonc2c(N)c1CCC1CCN(C(=O)[C@H](C)NC(=O)c2ccnn2C)CC1 | µM | 0.084
CNC(=O)c1cccc(Cc2c(C)nc3nonc3c2N)n1 [compound 6, reference compound] | µM | 0.064

Please find the next compound below.
Fill in the blank: the reported IC50 of CCCCCCCC(=O)NC[C@H](NC(=O)[C@@H](NC(=O)CNC)C(C)(C)C)C(=O)N[C@@H](Cc1ccccc1)C(=O)N[C@@H](CC(C)C)C(=O)N[C@@H](CO)C(=O)N1CCC[C@H]1C(N)=O [compound 15] (H-[Sar][Tle][Dap](Octanoyl)FLSP-NH2) is ____.
0.096
